- target.of.assay: UniProtKB E9AMP2
- protocol: biochemical
- Type: binding
- experimental.setup: DSF, 10 µM compound, 2 µM LmxCLK1, Run 1
Listed here are compounds together with their documented ΔTm Run 1.
// units = °C; emit number, no label

Please review the entries below; each comes with its answer.
COC(=O)Nc1ccc(-c2nc(N3CCOCC3)c3cnn(C4CCN(C(=O)OC)CC4)c3n2)cc1 [WYE-354]; -0.1
O=C(NCc1ccccc1)c1csc(Nc2ccncn2)n1 [Thiazovivin]; 0.3
Cc1ccc(F)c(NC(=O)Nc2ccc(-c3cccc4[nH]nc(N)c34)cc2)c1 [Linifanib (ABT-869)]; 0.3
CC(C)c1cnn2c(NCc3ccccc3)cc(NCCCCCCN)nc12.Cl [BS-181 HCl]; -0.3

# query: ΔTm Run 1 of entry CN1CCN(c2ccc3nc(-c4c(N)c5c(F)cccc5[nH]c4=O)[nH]c3c2)CC1 [Dovitinib (TKI-258)]
0.5

# query: ΔTm Run 1 of entry Cc1ccc(Nc2nccc(N(C)c3ccc4c(C)n(C)nc4c3)n2)cc1S(N)(=O)=O.Cl [Pazopanib HCl (GW786034 HCl)]
-0.1

# query: ΔTm Run 1 of entry Cc1cc(Nc2cc(N3CCN(C)CC3)nc(Sc3ccc(NC(=O)C4CC4)cc3)n2)n[nH]1 [VX-680 (Tozasertib)]
-0.3

# query: ΔTm Run 1 of entry COc1ccc2c(c1)c(C1=C(c3c[nH]c4ccccc34)C(=O)NC1=O)cn2CCCN(C)C [Go 6983]
0.6

# query: ΔTm Run 1 of entry S=C(NCc1ccc2c(c1)OCO2)N1CCN(c2ncnc3c2oc2ccccc23)CC1 [Amuvatinib (MP-470)]
0.1

# query: ΔTm Run 1 of entry Cc1ccc(S(=O)(=O)/C=C/C#N)cc1 [BAY 11-7082]
-0.4

# query: ΔTm Run 1 of entry Cl.Cl.Fc1cc(-c2cccc3ncc(-c4cnn(C5CCNCC5)c4)nc23)cc(F)c1CN1CCOCC1 [NVP-BSK805 2HCl]
0.9

====

- target.of.assay: LmxCLK1 (Leishmania mexicana, UniProt E9AMP2)
- Sequence (E9AMP2 1-422): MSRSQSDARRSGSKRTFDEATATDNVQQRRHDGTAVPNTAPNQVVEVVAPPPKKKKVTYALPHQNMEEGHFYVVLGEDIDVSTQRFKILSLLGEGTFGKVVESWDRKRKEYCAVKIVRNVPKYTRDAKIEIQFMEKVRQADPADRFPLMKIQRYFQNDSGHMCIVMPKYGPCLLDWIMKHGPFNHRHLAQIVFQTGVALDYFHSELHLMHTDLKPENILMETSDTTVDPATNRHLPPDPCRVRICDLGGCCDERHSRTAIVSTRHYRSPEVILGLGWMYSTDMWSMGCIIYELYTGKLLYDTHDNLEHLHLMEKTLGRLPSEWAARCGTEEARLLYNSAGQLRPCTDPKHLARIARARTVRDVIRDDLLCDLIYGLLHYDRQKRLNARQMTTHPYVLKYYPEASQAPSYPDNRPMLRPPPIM
- protocol: biochemical
- Assay type: binding
- experimental.setup: read-out: ΔTm Run 1
Listed here are compounds together with their documented ΔTm at 10 µM.
// units = °C; emit number, no label

O=C1Nc2ccccc2/C1=C1/Nc2ccccc2C1=O [Indirubin]; 0.1
C=CC(=O)Nc1cccc(Sc2nc(Nc3ccc(N4CCN(C)CC4)cc3)ncc2Cl)c1 [WZ8040]; 14.7
Nc1nc(N)c(N=O)c(OCC2CCCCC2)n1 [NU6027]; 0.1

Any idea what ΔTm at 10 µM came out for C=CC(=O)Nc1cccc(Oc2nc(Nc3ccc(N4CCN(C)CC4)cc3)ncc2Cl)c1 [WZ3146] on LmxCLK1 (Leishmania mexicana, UniProt E9AMP2)?
14.2

Any idea what ΔTm at 10 µM came out for CN1CCN(C2CCN(C(=O)Nc3cc(Oc4ccc(NC(=O)C5(C(=O)Nc6ccc(F)cc6)CC5)c(F)c4)ccn3)CC2)CC1 [Golvatinib (E7050)] on LmxCLK1 (Leishmania mexicana, UniProt E9AMP2)?
0.5

====

- target.of.assay: LmxCLK1 (Leishmania mexicana, UniProt E9AMP2)
- protocol: biochemical
- Type: binding
- experimental.setup: DSF, 10 µM compound, 2 µM LmxCLK1, Run 1
Counter-ions that a name gives are not always drawn.
measurement.kind: ΔTm Run 1

CN1CCN(CCOc2cc(OC3CCOCC3)c3c(Nc4c(Cl)ccc5c4OCO5)ncnc3c2)CC1; 0.8 °C
CO[C@H]1C[C@@H]2CC[C@@H](C)[C@@](O)(O2)C(=O)C(=O)N2CCCC[C@H]2C(=O)O[C@H]([C@H](C)C[C@@H]2CC[C@H](n3cnnn3)[C@H](OC)C2)CC(=O)[C@H](C)/C=C(\C)[C@@H](O)[C@@H](OC)C(=O)[C@H](C)C[C@H](C)/C=C/C=C/C=C/1C; 0.2 °C
COc1ccccc1-c1cc(Nc2cccc(CS(N)(=O)=O)c2)ncn1; -0.1 °C

# query: ΔTm Run 1 of entry COc1cc(Nc2c(C#N)cnc3cc(OCCCN4CCN(C)CC4)c(OC)cc23)c(Cl)cc1Cl [Bosutinib (SKI-606)]
0.5 °C

# query: ΔTm Run 1 of entry CCCCCCCCc1ccc(CCC(N)(CO)CO)cc1.Cl [Fingolimod (FTY720) HCl]
0.2 °C

# query: ΔTm Run 1 of entry Cl.Cl.Clc1ccc(Nc2nnc(Cc3ccncc3)c3ccccc23)cc1 [Vatalanib (PTK787) 2HCl]
-0.2 °C

# query: ΔTm Run 1 of entry CN1CCCN(C(=O)c2cccc(-c3ccc(/C=C4/C(=O)Nc5ccc(Cl)cc54)o3)c2)CC1.Cl [CX-6258 HCl]
0.1 °C

# query: ΔTm Run 1 of entry CNC(=O)CN1CCC(Oc2cc3c(Nc4cccc(Cl)c4F)ncnc3cc2OC)CC1 [AZD8931 (Sapitinib)]
-0.1 °C

# query: ΔTm Run 1 of entry CNC(=O)c1cc(Oc2ccc(NC(=O)Nc3ccc(Cl)c(C(F)(F)F)c3)cc2)ccn1 [Sorafenib Tosylate]
0.3 °C

# query: ΔTm Run 1 of entry NC1(Cc2ccc(Cl)cc2)CCN(c2ncnc3[nH]ccc23)CC1
0.8 °C

# query: ΔTm Run 1 of entry CNC(=O)c1cc(Oc2ccc(NC(=O)Nc3cc(C(C)(C)C)nn3-c3ccc4ncccc4c3)c(F)c2)ccn1 [DCC-2036 (Rebastinib)]
-0.2 °C

# query: ΔTm Run 1 of entry COc1cc2nccc(Oc3ccc(NC(=O)Nc4ccc(F)cc4F)c(F)c3)c2cc1OC
0.0 °C

====

- target.of.assay: LmxCLK1 (Leishmania mexicana)
- protocol: biochemical
- Type: binding
measurement.kind: ΔTm Run 1 (°C)
// units = °C; emit number, no label

Please review the entries below; each comes with its answer.
CN(C)CCCn1cc(C2=C(c3c[nH]c4ccccc34)C(=O)NC2=O)c2ccccc21 [GF109203X]; 0.3
Cc1[nH]nc2ccc(-c3cncc(OC[C@@H](N)Cc4ccccc4)c3)cc12; 0.8

Please find the next compound below.
# query: ΔTm Run 1 of entry Cc1ccccc1CN1C(=O)C2=C(CCN(Cc3ccccc3)C2)N2CCN=C12
0.2

====

Listed here are compounds together with their documented ΔTm at 10 µM.
- target.of.assay: UniProt:E9AMP2
- protocol: biochemical
- Assay type: binding
- experimental.setup: read-out: ΔTm Average
// units = °C; emit number, no label

Any idea what ΔTm at 10 µM came out for C=CC(=O)Nc1cccc(Oc2nc(Nc3ccc(N4CCN(C)CC4)cc3)ncc2Cl)c1 [WZ3146] on UniProt:E9AMP2?
14.3

Any idea what ΔTm at 10 µM came out for C=CC(=O)Nc1cccc(Sc2nc(Nc3ccc(N4CCN(C)CC4)cc3)ncc2Cl)c1 [WZ8040] on UniProt:E9AMP2?
14.8

Any idea what ΔTm at 10 µM came out for Nc1nc(N)c(N=O)c(OCC2CCCCC2)n1 [NU6027] on UniProt:E9AMP2?
0

Any idea what ΔTm at 10 µM came out for CN1CCN(C2CCN(C(=O)Nc3cc(Oc4ccc(NC(=O)C5(C(=O)Nc6ccc(F)cc6)CC5)c(F)c4)ccn3)CC2)CC1 [Golvatinib (E7050)] on UniProt:E9AMP2?
0.6

Any idea what ΔTm at 10 µM came out for O=C1Nc2ccccc2/C1=C1/Nc2ccccc2C1=O [Indirubin] on UniProt:E9AMP2?
0

====

- target.of.assay: LmxCLK1 (Leishmania mexicana, UniProt E9AMP2)
- protocol: biochemical
- Type: binding
- experimental.setup: DSF, 10 µM compound, 2 µM LmxCLK1, Run 1; read-out: ΔTm Run 1
Listed here are compounds together with their documented ΔTm at 10 µM.
// units = °C; emit number, no label

Please review the entries below; each comes with its answer.
CCNC(=O)Nc1ccc(-c2nc3c(c(N4CCOC[C@@H]4C)n2)CCN(C2COC2)C3)cc1; -0.1
Oc1cc(O)cc(/C=C/c2ccc(O)c(O)c2)c1; 0
O=c1ncn2nc(Sc3ccc(F)cc3F)ccc2c1-c1c(Cl)cccc1Cl; 0.4
Cc1cc(Nc2nc(N[C@@H](C)c3ncc(F)cn3)ncc2Cl)n[nH]1; 0.6
C=CC(=O)Nc1cc(Nc2nccc(-c3cn(C)c4ccccc34)n2)c(OC)cc1N(C)CCN(C)C; 0
C#Cc1cccc(Nc2ncnc3cc(OC)c(OCCCCCCC(=O)NO)cc23)c1; 0.4
COc1ccc(-c2ccc3c(N4CCOCC4)nc(N4C[C@@H](C)O[C@@H](C)C4)nc3n2)cc1CO; 0.1
O=C(O)c1ccc(Nc2ncc3c(n2)-c2ccc(Cl)cc2C(c2c(F)cccc2F)=NC3)cc1; 0.3

# query: ΔTm at 10 µM of entry CNC(=O)c1ccccc1Sc1ccc2c(/C=C/c3ccccn3)n[nH]c2c1
0.6
